test system: transactivating tegument protein VP16 (Human herpesvirus 1), Gal4-VP16 luciferase reporter; assay: VP16 transactivation inhibitors, counter-screen for SRC3 inhibitor project, cell-based, luminescence, high throughput (AID 588794); details: mammalian cells, VP16-driven luciferase reporter luminescence; at 3.6 µM; active compounds read high
Classification field: yes = inhibition at or over 20%; no = inhibition under 20%.

Solved cases below.
MOLECULE	EXPERIMENTAL TARGET	CLASS NAME
Cc1ccc2c(c1)c(C)cc[n+]2Cc1ccccc1	transactivating tegument protein VP16 (Human herpesvirus 1), Gal4-VP16 luciferase reporter	no
CCCC(=O)NC(c1ccccc1OC)c1ccc2cccnc2c1O (stereo not given)	transactivating tegument protein VP16 (Human herpesvirus 1), Gal4-VP16 luciferase reporter	yes
COc1cc(C2c3cc4c(cc3C(OC3OC5COC(c6cccs6)OC5C(O)C3O)C3COC(=O)C23)OCO4)cc(OC)c1O (stereo not given)	transactivating tegument protein VP16 (Human herpesvirus 1), Gal4-VP16 luciferase reporter	no

We next turn to a different molecule, shown below.
## Task Could you please find out whether Cc1oc2c(Cl)c(Cl)c(O)c(CN(C)C)c2c1C(=O)c1ccc(Cl)cc1 has inhibition that meets 20% or exceeds it?
## Result yes
